species: Homo sapiens; assay: Selectivity for CB1 receptor over CB2 receptor
Catalogue of Ratio Ki values
// no unit, no text: just the number

smiles record | Ratio Ki
CC(=O)N[C@@H](C)c1ccc(S(=O)(=O)c2ccc(Cl)cc2S(=O)(=O)c2ccccc2F)cc1 | 250
C[C@H](NS(=O)(=O)C(F)(F)F)c1ccc(S(=O)(=O)c2ccc(NC3CC3)cc2S(=O)(=O)c2ccccc2F)cc1 | 66
C[C@H](NS(=O)(=O)C(F)(F)F)c1ccc(S(=O)(=O)c2ccc(Cl)cc2S(=O)(=O)N2CCOCC2)cc1 | 99
C[C@H](NS(=O)(=O)C(F)(F)F)c1ccc(S(=O)(=O)c2ccc(Cl)cc2S(=O)(=O)c2c(F)cccc2NC2CC2)cc1 | 688
Cc1occc1S(=O)(=O)c1cc(Cl)ccc1S(=O)(=O)c1ccc([C@H](C)NS(C)(=O)=O)cc1 | 538

For the molecule `C[C@H](NS(=O)(=O)C(F)(F)F)c1ccc(S(=O)(=O)c2ccc(OC(F)(F)F)cc2S(=O)(=O)c2ccccc2F)cc1` , what Ratio Ki is on record?
525

Recorded Ratio Ki for `Cc1ccc(S(=O)(=O)c2ccc([C@H](C)NS(=O)(=O)C(F)(F)F)cc2)c(S(=O)(=O)c2ccccc2F)c1` , please?
2290

Recorded Ratio Ki of `CCOc1ccc(S(=O)(=O)c2ccc([C@H](C)NS(=O)(=O)C(F)(F)F)cc2)c(S(=O)(=O)c2ccccc2F)c1` , please.
1960

###

Cannabinoid receptor 2 (Homo sapiens) (UniProt P34972): reported log10 of Ki for various compounds.
Sequence (P34972 whole entry, looked up): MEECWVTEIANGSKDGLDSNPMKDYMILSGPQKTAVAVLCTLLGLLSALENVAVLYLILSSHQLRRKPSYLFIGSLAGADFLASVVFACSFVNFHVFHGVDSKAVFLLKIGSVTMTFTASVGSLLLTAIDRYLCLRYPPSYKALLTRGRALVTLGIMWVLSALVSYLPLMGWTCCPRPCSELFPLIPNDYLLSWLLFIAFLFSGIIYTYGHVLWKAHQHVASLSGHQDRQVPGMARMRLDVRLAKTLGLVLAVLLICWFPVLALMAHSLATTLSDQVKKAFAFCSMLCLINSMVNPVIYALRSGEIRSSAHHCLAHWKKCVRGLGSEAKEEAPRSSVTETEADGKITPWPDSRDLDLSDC
Heads up: the numbers are on a log10 scale; they represent Ki in nM.

Worked set:
smiles record | log10 of Ki
C[C@H](NS(=O)(=O)C(F)(F)F)c1ccc(S(=O)(=O)c2ccc(Cl)cc2S(=O)(=O)N2CCCCC2)cc1 | 1.76
C[C@H](NS(=O)(=O)C(F)(F)F)c1ccc(S(=O)(=O)c2ccc(C3CC3)cc2S(=O)(=O)c2ccccc2F)cc1 | 0.15
C[C@H](NS(=O)(=O)C(F)(F)F)c1ccc(S(=O)(=O)c2ccc(Cl)cc2S(=O)(=O)c2c(F)cccc2N(C)C)cc1 | 2.06
C[C@H](NS(=O)(=O)C(F)(F)F)c1ccc(S(=O)(=O)c2ccc(Cl)cc2S(=O)(=O)c2c(F)cccc2NC2CC2)cc1 | 1.16

Now look at this entry.
GET /values?readout=log10 of Ki&item= `C[C@H](NS(=O)(=O)C(F)(F)F)c1ccc(S(=O)(=O)c2ccc(Cl)cc2S(=O)(=O)c2ccccn2)cc1`
0.56

###

test: in vivo; conditions: rat, plasma, po, 10 mg/kg
Description: AUC in rat at 10 mg/kg, po after 6 hrs
property label: AUC at 6 h (µM·h)
Number only, in µM·h; omit the unit.

Tell me the measured AUC at 6 h of `C[C@H](NS(C)(=O)=O)c1ccc(S(=O)(=O)c2ccc(Cl)cc2S(=O)(=O)c2ccccc2F)cc1` , please.
6.33

###

# Ki measurements, system: Cannabinoid receptor 2 (Homo sapiens) (UniProt P34972)
Reply with the number and its unit after it.

# returns recorded Ki (system: Cannabinoid receptor 2 (Homo sapiens) (UniProt P34972)) for `C[C@H](NS(=O)(=O)C(F)(F)F)c1ccc(S(=O)(=O)c2ccc(NC3CC3)cc2S(=O)(=O)c2ccccc2F)cc1`
4.9 nM

# get_value(readout= Ki, system= Cannabinoid receptor 2 (Homo sapiens) (UniProt P34972)) for `C[C@H](NS(C)(=O)=O)c1ccc(S(=O)(=O)c2ccc(Cl)cc2S(=O)(=O)NS(C)(=O)=O)cc1`
2750 nM

For Cannabinoid receptor 2 (Homo sapiens) (UniProt P34972), provide Ki of `C[C@H](NS(C)(=O)=O)c1ccc(S(=O)(=O)c2ccc(Cl)cc2S(=O)(=O)C2CCCCC2)cc1` please.
8.9 nM

Form field: Ki recorded for `C[C@H](NS(=O)(=O)C(F)(F)F)c1ccc(S(=O)(=O)c2ccc(Cl)cc2S(=O)(=O)N2CCOCC2)cc1` with Cannabinoid receptor 2 (Homo sapiens) (UniProt P34972) (enter value)
192 nM

###

Listing of entries alongside the reported Ratio Ki.
species: Homo sapiens; assay: Selectivity for CB1 receptor over CB2 receptor
API note: the answer field is a bare number with no unit suffix.

Some molecules with known Ratio Ki results, for comparison:
smiles record | meas value
C[C@H](NCC(F)(F)F)c1ccc(S(=O)(=O)c2ccc(Cl)cc2S(=O)(=O)c2ccccc2F)cc1 | 325
C[C@H](NS(C)(=O)=O)c1ccc(S(=O)(=O)c2ccc(Cl)cc2S(=O)(=O)c2cccc3cccnc23)cc1 | 31
C[C@H](NS(=O)(=O)C(F)(F)F)c1ccc(S(=O)(=O)c2ccc(N)cc2S(=O)(=O)c2ccccc2F)cc1 | 170
C[C@H](NS(=O)(=O)C(F)(F)F)c1ccc(S(=O)(=O)c2ccc(Cl)cc2S(=O)(=O)c2ccccn2)cc1 | 1150
C[C@H](NS(=O)(=O)C(F)(F)F)c1ccc(S(=O)(=O)c2ccc(C(F)(F)F)cc2S(=O)(=O)c2ccccc2F)cc1 | 2080
C[C@H](N)c1ccc(S(=O)(=O)c2ccc(Cl)cc2S(=O)(=O)c2ccccc2F)cc1 | 14
C[C@H](NS(C)(=O)=O)c1ccc(S(=O)(=O)c2ccc(Cl)cc2S(=O)(=O)c2ccccn2)cc1 | 4400
CNc1cccc(F)c1S(=O)(=O)c1cc(Cl)ccc1S(=O)(=O)c1ccc([C@H](C)NS(=O)(=O)C(F)(F)F)cc1 | 212

Which value of Ratio Ki has been reported for `CNS(=O)(=O)c1cc(Cl)ccc1S(=O)(=O)c1ccc([C@H](C)NS(C)(=O)=O)cc1` in the records?
64

Return reported Ratio Ki; argument: `C[C@H](NS(C)(=O)=O)c1ccc(S(=O)(=O)c2ccc(Cl)cc2S(=O)(=O)NS(C)(=O)=O)cc1`
36

Ratio Ki lookup needed for `C[C@H](NS(=O)(=O)C(F)(F)F)c1ccc(S(=O)(=O)c2ccccc2S(=O)(=O)c2ccccc2F)cc1` , thanks.
426

Given the entry `C[C@H](NS(=O)(=O)C(F)(F)F)c1ccc(S(=O)(=O)c2ccc(O)cc2S(=O)(=O)c2ccccc2F)cc1` , report its measured Ratio Ki.
1570

# input molecule: `C[C@H](NS(C)(=O)=O)c1ccc(S(=O)(=O)c2ccc(Cl)cc2S(=O)(=O)C2CCCCC2)cc1` ; wanted: its Ratio Ki
345

For the molecule shown here, `C[C@H](NS(C)(=O)=O)c1ccc(S(=O)(=O)c2ccc(Cl)cc2S(=O)(=O)N(C)C)cc1` , give the reported Ratio Ki.
58

Looking for the measured Ratio Ki of `C[C@H](NS(=O)(=O)C(F)(F)F)c1ccc(S(=O)(=O)c2ccc(Cl)cc2S(=O)(=O)N2CCCCC2)cc1` , can you help?
231

Form field: reported Ratio Ki of `C[C@H](NC(=O)C(F)(F)F)c1ccc(S(=O)(=O)c2ccc(Cl)cc2S(=O)(=O)c2ccccc2F)cc1`
784

###

species: Homo sapiens; assay: Selectivity for CB1 receptor over CB2 receptor
The entries below come with measured Ratio Ki values attached.

smiles record | meas value
C[C@H](NS(=O)(=O)C(F)(F)F)c1ccc(S(=O)(=O)c2ccc(C3CC3)cc2S(=O)(=O)c2ccccc2F)cc1 | 2240

If you can, please state the reported Ratio Ki value of `C[C@H](NS(=O)(=O)C(F)(F)F)c1ccc(S(=O)(=O)c2ccc(Cl)cc2S(=O)(=O)c2c(F)cccc2F)cc1` .
642

Need Ratio Ki of `C[C@H](NCCC(F)(F)F)c1ccc(S(=O)(=O)c2ccc(Cl)cc2S(=O)(=O)c2ccccc2F)cc1` , thanks.
105

Quick one: Ratio Ki for `C[C@H](NS(=O)(=O)C(F)(F)F)c1ccc(S(=O)(=O)c2ccc(Cl)cc2S(=O)(=O)c2c(F)cccc2N2CCOCC2)cc1` ?
18

Reported Ratio Ki, molecule `C[C@H](NS(=O)(=O)C(F)(F)F)c1ccc(S(=O)(=O)c2ccc(N3CCNCC3)cc2S(=O)(=O)c2ccccc2F)cc1` : ____
31

Quick check: Ratio Ki of `C[C@H](NS(C)(=O)=O)c1ccc(S(=O)(=O)c2ccc(Cl)cc2S(=O)(=O)c2ccccc2F)cc1` ?
4390

###

molecular target: Cannabinoid receptor 2 (Homo sapiens) (UniProt P34972)
Binary label based on Ki with cut-off 20 nM: below gives label 1, not below gives label 0.

smiles record | class assignment
CCOc1ccc(S(=O)(=O)c2ccc([C@H](C)NS(=O)(=O)C(F)(F)F)cc2)c(S(=O)(=O)c2ccccc2F)c1 | label 1
C[C@H](NS(=O)(=O)C(F)(F)F)c1ccc(S(=O)(=O)c2ccc(Cl)cc2S(=O)(=O)NC(C)(C)C)cc1 | label 0
CC(=O)N[C@@H](C)c1ccc(S(=O)(=O)c2ccc(Cl)cc2S(=O)(=O)c2ccccc2F)cc1 | label 0
Cc1ccc(S(=O)(=O)c2ccc([C@H](C)NS(=O)(=O)C(F)(F)F)cc2)c(S(=O)(=O)c2ccccc2F)c1 | label 1
COCCOc1ccc(S(=O)(=O)c2ccc([C@H](C)NS(=O)(=O)C(F)(F)F)cc2)c(S(=O)(=O)c2ccccc2F)c1 | label 1

Lab log: compare recorded Ki with 20 nM; is it strictly lower for `Cc1occc1S(=O)(=O)c1cc(Cl)ccc1S(=O)(=O)c1ccc([C@H](C)NS(C)(=O)=O)cc1` ?
label 0

For this compound, is Ki lower than 20 nM? `C[C@H](NS(=O)(=O)C(F)(F)F)c1ccc(S(=O)(=O)c2ccc(Cl)cc2S(=O)(=O)c2ncccn2)cc1`
label 0

Report whether reported Ki is lower than 20 nM (strictly) for `C[C@H](NS(=O)(=O)C(F)(F)F)c1ccc(S(=O)(=O)c2ccc(Cl)cc2S(=O)(=O)c2c(F)cccc2F)cc1`
label 1
